protocol description: Confirmation screen for delayed death inhibitors of the malarial parasite plastid, 48 hour incubation; also: nearly all actives have a fitted effect of over 65% in size
condition label: P. falciparum-infected erythrocytes, luciferase growth; series mostly up to 28.7 µM
Out of some 2,300 compounds screened, about 1,200 (52%) were called active. Another 34% or so got no clear call; they are omitted. Calls follow the shape of the dose curve; as a rule, active = well fitted inhibition curve with a large enough effect; inconclusive = small, poorly fitted or top-dose-only effect, or effect the other way; inactive = no such curve, though single readings can be large or run the other way. The set was probably picked from earlier hits. The list shows a part of the results.
Give one outcome, nothing more. List: active, inactive

# count of solved cases: 5
compound	group label
C=CCn1cccc(/C=C/C(=O)c2ccc(C(C)(C)C)cc2)c1=S	active
Cc1ccccc1-c1nc(CS(=O)CC(=O)NC(C)CCc2ccccc2)c(C)o1 (stereo not given)	inactive
CCOC(=O)C(=Cc1ccc(-n2cncn2)cc1)C(=O)OCC	active
CSCCn1c(C(C)(C)C)cc(C(=O)O)c1C	inactive
CCOc1ccc2c(c1)OC(c1ccccc1)(C(F)(F)F)NC2=O (stereo not given)	active

Data request: What outcome does the record of this test show for `CCOc1cc(/C=C2\CN(CC)C/C(=C\c3ccc(O)c(OCC)c3)C2=O)ccc1O` ?
Data returned: active

Data request: What outcome does the record of this test show for `CCOC(=O)C(CC)(CC)C(=O)/C=C/c1ccc(Br)cc1` ?
Data returned: active

Data request: What outcome does the record of this test show for `N#Cc1ccc(Oc2ccc(-c3nc4ccccc4nc3-c3ccccc3)cc2)cc1C#N` ?
Data returned: active

Data request: What outcome does the record of this test show for CCN1CCCC1CNC(=O)CS(=O)(=O)Cc1nc(-c2ccccc2C)oc1C (stereo not given) ?
Data returned: active

Data request: What outcome does the record of this test show for `COc1ccc(/C=C2\CN(Cc3ccccc3)C/C(=C\c3ccc(OC)c(O)c3)C2=O)cc1O` ?
Data returned: active

###

protocol description: Confirmation screen for delayed death inhibitors of the malarial parasite plastid, 48 hour incubation; also: nearly all actives have a fitted effect of over 65% in size; also: potency is read from the fitted curve at half-maximal effect
condition label: P. falciparum-infected erythrocytes, luciferase growth; series mostly up to 28.7 µM
In all, about 2,300 compounds went through this assay and about 1,200 (52%) were called active. About 34% were inconclusive and are not listed. So high a share suggests a set chosen from earlier hits. Some of the results follow.
quantity kind: Potency

Example cases with answers are listed next.
compound	observed result
O=C(CNC(=O)c1cccc(F)c1)N/N=C/c1ccc([N+](=O)[O-])s1	11.2 µM (active)
CC(C)c1ccc(/C=C/C(=O)NC(=S)NN2CCOCC2)cc1	inactive
Cc1ccc(Oc2nc3ccccn3c(=O)c2/C=C(\C#N)C(=O)NC2CCS(=O)(=O)C2)c(C)c1 (stereo not given)	12.6 µM (active)
Cc1cc(C)n(-c2ccc(C(=O)Nc3ccc(S(=O)(=O)NCc4ccco4)cc3)cc2)n1	10 µM (active)

Data request: // query Potency value for entry COc1ccccc1CNC(=O)CN1C(=O)NC(c2ccccc2)(c2ccc(C)c(C)c2)C1=O (stereo not given)
Data returned: 12.6 µM (active)

Data request: // query Potency value for entry `Cn1nc([N+](=O)[O-])nc1Sc1nnc(-c2ccccc2)o1`
Data returned: 11.2 µM (active)

Data request: // query Potency value for entry `Cc1ccccc1-c1nnc(NC(=O)c2ccc(N3C(=O)CCC3=O)cc2)s1`
Data returned: 14.1 µM (active)

Data request: // query Potency value for entry `COc1ccc(C(=O)NCC(=O)N/N=C(C)\C=C\c2ccccc2)cc1OC`
Data returned: inactive

Data request: // query Potency value for entry `CC(C)n1nc(C(=O)Nc2cccc(S(=O)(=O)NCc3ccco3)c2)c2ccccc2c1=O`
Data returned: 11.2 µM (active)

Data request: // query Potency value for entry `O=C(NCc1ccc2[nH]c3c(c2c1)CCCC3)c1ccc(S(=O)(=O)N2CCCC2)cc1`
Data returned: 15.8 µM (active)

Data request: // query Potency value for entry Cc1onc(-c2c(Cl)cccc2Cl)c1C(=O)N=C(N)N1CC(C)OC(C)C1 (stereo not given)
Data returned: 11.2 µM (active)

Data request: // query Potency value for entry `COCCn1c(C)cc(C(=O)CSc2cc(C)c3ccc(OC)cc3n2)c1C`
Data returned: 12.6 µM (active)

Data request: // query Potency value for entry COc1cccc(N2CC(C(=O)Nc3nnc(SCCC4OCCO4)s3)CC2=O)c1 (stereo not given)
Data returned: 12.6 µM (active)

Data request: // query Potency value for entry Cc1ccc2c(c1)C1CC(C)(O2)N(c2cccc(C(=O)N3CCN(c4ccccn4)CC3)c2)C(=O)N1 (stereo not given)
Data returned: 12.6 µM (active)

###

protocol description: Confirmation screen for delayed death inhibitors of the malarial parasite plastid, 48 hour incubation; also: nearly all actives have a fitted effect of over 65% in size
condition label: P. falciparum-infected erythrocytes, luciferase growth; series mostly up to 28.7 µM
Source text: The goal of this screen is to discover new antimalarial compounds that act by inhibiting the development of the apicoplast in the malarial parasite Plasmodium falciparum. The biochemical processes that make this organelle essential for erythrocytic stage parasites are not well understood. […] Growth inhibition is detected by a decrease in luciferase activity. […]
The campaign covered roughly 2,300 compounds. About 1,200 (52%) were called active. Not shown: some 34% with an inconclusive outcome. Calls follow the shape of the dose curve; as a rule, active = well fitted inhibition curve with a large enough effect; inconclusive = small, poorly fitted or top-dose-only effect, or effect the other way; inactive = no such curve, though single readings can be large or run the other way. The set was probably picked from earlier hits. The list shows a part of the results.
Give one outcome, nothing more. List: y = active, n = inactive

molecule	group label
Cc1[nH]c(C)c(S(=O)(=O)N2CCN(c3cccc(C(F)(F)F)c3)CC2)c1C(=O)N1CCCCC1	n
CCCCCCC1C(C#N)=C(N)OC2=C1C(=O)CCC2 (centres undefined)	n

Data request: What outcome does the record of this test show for `O=S(=O)(c1ccc(Cl)c(NC(=S)N/N=C/c2ccc(O)cc2)c1)N1CCOCC1` ?
Data returned: y

Data request: What outcome does the record of this test show for Cc1c(OCC(=O)NCC(O)c2ccccc2)ccc2c3c(c(=O)oc12)CCC3 (centres undefined) ?
Data returned: y

Data request: What outcome does the record of this test show for `CCc1noc(C)c1C(=O)N1CCC(CCC(=O)Nc2cccc(C)c2)CC1` ?
Data returned: y

Data request: What outcome does the record of this test show for `COC(=O)[C@@H]1C[C@]2(OC(=O)c3ccccc3)C=CC(=O)C[C@@H]2N1C(=O)OCc1ccccc1` ?
Data returned: y

Data request: What outcome does the record of this test show for Cc1occc1C(=O)NC1CCCN(Cc2ccc(CC(C)C)cc2)C1 (centres undefined) ?
Data returned: y

Data request: What outcome does the record of this test show for `COC(=O)[C@]1(CC(C)C)N[C@H](c2ccc(-c3ccc(F)cc3)c(OC)c2)[C@@H]2C(=O)N(C)C(=O)[C@@H]21` ?
Data returned: y

Data request: What outcome does the record of this test show for O=S(=O)(NCC(O)c1ccccc1)c1cc(Cl)sc1Cl (centres undefined) ?
Data returned: n

###

protocol description: Confirmation screen for delayed death inhibitors of the malarial parasite plastid, 48 hour incubation; also: nearly all actives have a fitted effect of over 65% in size
condition label: P. falciparum-infected erythrocytes, luciferase growth; series mostly up to 28.7 µM
Hit rate of the full screen: of about 2,300 compounds, about 1,200 (52%) were called active. Another 34% or so got no clear call; they are omitted. Calls follow the shape of the dose curve; as a rule, active = well fitted inhibition curve with a large enough effect; inconclusive = small, poorly fitted or top-dose-only effect, or effect the other way; inactive = no such curve, though single readings can be large or run the other way. The set was probably picked from earlier hits. Some of the results follow.
Give one outcome, nothing more. List: TRUE for active, FALSE for inactive

# count of solved cases: 2
test smiles	group label
CCCNC(=O)c1nnsc1S(=O)(=O)c1ccc(Cl)cc1	FALSE
N#Cc1cc(C(=O)c2cc(Cl)ccc2O)cn(-c2ccccc2)c1=O	TRUE

Data request: What outcome does the record of this test show for `O=C(Cn1ncc2c3ccccc3n(Cc3cccc(Cl)c3)c2c1=O)NCc1ccccn1` ?
Data returned: TRUE

Data request: What outcome does the record of this test show for `CCc1ccc(/C=C/c2c[nH]c3ccccc23)[n+](CC)c1` ?
Data returned: TRUE

Data request: What outcome does the record of this test show for `C=CCNC(=O)c1onc(CSc2cccc(Cl)c2)c1C(=O)O` ?
Data returned: FALSE

Data request: What outcome does the record of this test show for `CSc1nnc2c3ccccc3n(CCc3ccccc3)c2n1` ?
Data returned: TRUE

###

protocol description: Confirmation screen for delayed death inhibitors of the malarial parasite plastid, 48 hour incubation; also: nearly all actives have a fitted effect of over 65% in size; also: potency is read from the fitted curve at half-maximal effect
condition label: P. falciparum-infected erythrocytes, luciferase growth; series mostly up to 28.7 µM
Hit rate of the full screen: of about 2,300 compounds, about 1,200 (52%) were called active. Not shown: some 34% with an inconclusive outcome. The set was probably picked from earlier hits. The list shows a part of the results.
Reported values of Potency for individual entries

Example cases with answers are listed next.
compound	Potency
CCc1ccc(N/C(SCc2cccc(F)c2)=C(/C#N)C(=O)NCc2ccco2)cc1	10 µM (active)
Cc1cccc(NC(=O)Cc2coc3ccc4ccccc4c23)n1	12.6 µM (active)
N#Cc1c(SCC(=O)Nc2ccc(C(F)(F)F)cc2)sc2c(O)cc(=O)[nH]c12	0.316 µM (active)
CCc1ccc(NC(=O)CN(c2cc(C)cc(C)c2)S(=O)(=O)c2c(C)[nH]c(=O)[nH]c2=O)cc1	12.6 µM (active)
CCOC(=O)C1CCCCN1Cc1cccc(OCc2ccccc2)c1 (stereo not given)	14.1 µM (active)

Data request: // query Potency value for entry `Cc1ccc(NC(=O)CSc2nc3ccccc3c(=O)n2CCCN2CCCCC2)cc1Cl`
Data returned: 7.94 µM (active)

Data request: // query Potency value for entry CC(=O)/C(C#N)=C1\NC(=O)C(Cc2cc(Cl)ccc2Cl)S1 (stereo not given)
Data returned: 14.1 µM (active)

Data request: // query Potency value for entry CC(=O)/C(C#N)=C1\NC(=O)C(Cc2ccc(F)cc2)S1 (stereo not given)
Data returned: 10 µM (active)

Data request: // query Potency value for entry `Cc1cc(NC(=O)CSc2sc3c(O)cc(=O)[nH]c3c2C#N)ccc1Br`
Data returned: 14.1 µM (active)
